# Tested on: CCRIS mutagenicity, Ames/micronucleus/aberration tests
# experimental.protocol: CCRIS mutagenicity studies
# setup.conditions: Test System: AMES SALMONELLA TYPHIMURIUM; Strain/Indicator: TA98; Metabolic Activation: RAT, LIVER, S-9, AROCLOR 1254
# From the text: The CCRIS database contains chemical records with carcinogenicity, mutagenicity, tumor promotion, and tumor inhibition test results. It was developed by the National Cancer Institute (NCI). Data are derived from studies cited in primary journals, current awareness tools, NCI reports, and other sources. Test results have been reviewed by experts in carcinogenesis and mutagenesis. CCRIS provides historical information from the years 1985 - 2011. It is no longer updated. […]
The source made the active and inactive calls. No rule for the calls is given here.
Permitted responses: true = active, false = inactive

What was the test verdict on CCNc1nc(Cl)nc(NC(C)C)n1 ?
false

What did this assay record as the result for O=C(O)CC(Cl)C(=O)O (stereo unspecified) ?
false

Answer briefly: the call reported for CC(=O)Nc1ccc(OCC(O)CNC(C)C)cc1 (stereo unspecified) in this assay.
false

Any idea what this test logged for CC(C)(Oc1ccc(C2CCCc3ccccc32)cc1)C(=O)O (stereo unspecified) ?
false

Which outcome did this test record for the molecule Nc1ccc(N)cc1 ?
true

What call does the record list for Cc1ccc2n[nH]nc2c1 ?
false

---

# Tested on: CCRIS mutagenicity, Ames/micronucleus/aberration tests
# experimental.protocol: CCRIS mutagenicity studies
# setup.conditions: Test System: AMES SALMONELLA TYPHIMURIUM; Strain/Indicator: TA100; Metabolic Activation: RAT, LIVER, S-9, AROCLOR 1254; Method: PREINCUBATION
Active and inactive are the calls of the source. No rule for the calls is given here.
readout.label: mutagenic call

smiles.record	mutagenic call
C=CC=O	active; positive
c1ccc2c(c1)ccc1ncccc12	active; positive
Cc1ccco1	inactive; negative
[Cl][Pt-2]([Cl])([Cl])[Cl]	active; positive

Quick check: mutagenic call on CCRIS mutagenicity, Ames/micronucleus/aberration tests, item c1ccncc1 ?
inactive; negative

Write down the reported mutagenic call of c1ccc2c(c1)-c1ccc3ccc4cccc5cc-2c1c3c45 , test system: CCRIS mutagenicity, Ames/micronucleus/aberration tests.
active; positive

Any idea what mutagenic call came out for O=[N+]([O-])c1cc([As](=O)(O)O)ccc1O on CCRIS mutagenicity, Ames/micronucleus/aberration tests?
inactive; negative

---

# Tested on: CCRIS mutagenicity, Ames/micronucleus/aberration tests
# experimental.protocol: CCRIS mutagenicity studies
# setup.conditions: Test System: AMES SALMONELLA TYPHIMURIUM; Strain/Indicator: TA98; Metabolic Activation: RAT, LIVER, S-9, AROCLOR 1254 (10%); Method: PREINCUBATION
The source made the active and inactive calls. The rule behind the calls is not given here.
Bench note: report the call from active, inactive

Check the results log: what was the call for OCCCBr ?
inactive

Any idea what this test logged for COc1ccc(CN(CCN(C)C)c2ncccn2)cc1 ?
inactive

Write down the call the test reported for this compound. Item: O=[N+]([O-])c1ccc(CCO)cc1
active

Answer briefly: the call reported for CC(C)=CCl in this assay.
inactive

Could you kindly confirm the outcome this assay logged for CCN(CC)CC ?
inactive

How was O=c1[nH]c(=O)n(Cl)c(=O)n1Cl classified in this test?
inactive

Assay outcome for CC(C)(C)N : what was it?
inactive

Given O=C(O)c1ccccc1-c1c2ccc(=O)cc-2oc2cc(O)ccc12 , state the outcome it received in this test.
inactive
